Record form. Attribute: GI50. Fill in for each entry.
Test system: MDA-N
experimental_details: NCI tumour cell line growth inhibition, 48 h
Active and inactive are the calls of the source. Cut-off read from the data, not from the text of the source: active = GI50 up to about 1.1 µM and inactive = higher.

molecule	GI50
N#CCc1nc(-c2ccccc2)n[nH]1	> 100 µM (inactive)
COc1ccc(/C=C2\Sc3nnc(-c4ccccc4)n3N=C2c2cc(F)c(Cl)cc2Cl)cc1OC	23.1 µM (inactive)

Turning to the following molecule.
Prompt: Query for MDA-N: what GI50 does the record show for O=C(CCCN1CCC(C(O)c2ccc(F)cc2)CC1)c1ccc(F)cc1 (stereo not drawn) ?
Response: 61 µM (inactive)

* * *

Test system: DU-145
experimental_details: NCI tumour cell line growth inhibition, 48 h
Calls of active or inactive are those of the source. Cut-off read from the data, not from the text of the source: active = GI50 up to about 1.1 µM and inactive = higher.
measured_property: GI50

Would you please look over these solved cases?
compound	GI50
Cc1c(Cl)cc(C(C)(C)C)c(O)c1Cc1c(C)c(Cl)cc(C(C)(C)C)c1O	1.96 µM (inactive)
COc1cc2c(cc1OC)C(=O)N(NC1=NCCN1)C2=O	> 100 µM (inactive)
N=C(N)NCC(N)C(=O)O (configuration not stated)	> 100 µM (inactive)
Clc1ccc(CCn2ccc3ccccc32)c(Cl)c1	> 100 µM (inactive)

Parameter requested: GI50. Apply to each item below.
1. CCNC1CC(C(C)(C)NCC)CC=C1C (configuration not stated)
2. CCCCCCCCOC1C(O)C(O)C(O)C(O)C12CO2 (configuration not stated)

Response:
1: > 100 µM (inactive); 2: 76.6 µM (inactive)

Prompt: May I ask what GI50 has been recorded for CN1C2CCC1C(C(O)c1ccccc1[N+](=O)[O-])C(=O)C2 (configuration not stated) ?
Response: 28.3 µM (inactive)
